- studySystem: C-terminal-binding protein 1 (Homo sapiens)
- assayProcedure: qHTS for Inhibitors of the Phosphatase Activity of Eya2: Carboxyl-terminal binding protein (CtBP) Counterscreen for Cherry-picked Compounds; further: nearly all actives have a fitted effect of over 65% in size
- appliedConditions: purified protein-protein binding, AlphaScreen, 3 h; series mostly up to 46.1 µM
About 420 (32%) of roughly 1,300 compounds were called active. Not shown: some 32% with an inconclusive outcome. The call rests on the fitted dose curve; in most records, active means well fitted inhibition curve with a large enough effect; inconclusive means small, poorly fitted or top-dose-only effect; inactive means no such curve, though single readings can be large or run the other way. The list shows a part of the results.
Please state which outcome applies, choosing from y = active, n = inactive

Examples from the recorded data:
• COc1ccc(NC(=O)COc2cccc3c2CCN(C)C3=O)c(OC)c1 = y
• COc1ccc2c(c1)sc1nc(=O)ccn12 = n
• COc1ccc(CCNC(=O)C(=O)NCc2cccs2)cc1OC = n

Query: Give the logged outcome of this assay for the following compound: Cc1cccc(S(=O)(=O)C(C#N)c2nc3ccccc3nc2N2CCOCC2)c1 (centres undefined)
Reply: n

====

- studySystem: C-terminal-binding protein 1 (Homo sapiens)
- assayProcedure: qHTS for Inhibitors of the Phosphatase Activity of Eya2: Carboxyl-terminal binding protein (CtBP) Counterscreen for Cherry-picked Compounds; further: nearly all actives have a fitted effect of over 65% in size
- appliedConditions: purified protein-protein binding, AlphaScreen, 3 h; series mostly up to 46.1 µM
Hit rate of the full screen: of about 1,300 compounds, about 420 (32%) were called active. About 32% were inconclusive and are not listed. The list shows a part of the results.
metric: outcome

* O=C(CSc1ccc2c(c1)OCCO2)Nc1ccc2c(c1)OCO2 | inactive
* Nc1nc2cc3ccccc3cc2[nH]c1=O | inactive
* CNc1nc(-c2ccc3c(c2)CCN3C(=O)c2cccc(F)c2)cs1 | inactive

====

- studySystem: C-terminal-binding protein 1 (Homo sapiens) (UniProt Q13363)
- assayProcedure: qHTS for Inhibitors of the Phosphatase Activity of Eya2: Carboxyl-terminal binding protein (CtBP) Counterscreen for Cherry-picked Compounds; further: nearly all actives have a fitted effect of over 65% in size
- appliedConditions: purified protein-protein binding, AlphaScreen, 3 h; series mostly up to 46.1 µM
About 420 (32%) of roughly 1,300 compounds were called active. Not shown: some 32% with an inconclusive outcome. Calls follow the shape of the dose curve; as a rule, active = well fitted inhibition curve with a large enough effect; inconclusive = small, poorly fitted or top-dose-only effect; inactive = no such curve, though single readings can be large or run the other way. The list shows a part of the results.
Please state which outcome applies, choosing from class 1 (active), class 0 (inactive)

Examples from the recorded data:
- O=C(Oc1ccc(C(=S)N2CCOCC2)cc1)c1ccccc1: class 0
- N#Cc1c(N)n(-c2cccc(C(=O)O)c2)c2nc3ccccc3nc12: class 1

Query: Give the logged outcome of this assay for the following compound: CCOc1ccc2[nH]cc(-c3csc(N)n3)c2c1
Reply: class 1

Query: Give the logged outcome of this assay for the following compound: COc1ccc(C(=O)Nc2cc(OC)c(NC(=O)Nc3ccccc3)cc2OC)cc1
Reply: class 0

Query: Give the logged outcome of this assay for the following compound: CCN(Cc1cccc(S(=O)(=O)O)c1)c1ccc(C(=C2C=CC(=[N+](CC)Cc3cccc(S(=O)(=O)O)c3)C=C2)c2ccc(O)cc2S(=O)(=O)O)cc1
Reply: class 1
